Numbers sourced from patent US20230303994.

Target: pre-pro-human insulin
Endpoint: Selectivity

Prompt line: Which Selectivity reading was recorded for the protein trypsin variant SEQ ID NO: 38 (protein) IVGGYTCAANSIPYQVSLNSGSHRCGGSLINSQWVVSAAHCYKSRIQVRLGEHNIDVLEGNEQFINAAKIITHPNFNGNTLDNDIMLIKLSSPATLNSRVATVSLPRSCAAAGTECLISGWGNTKSSGSSCPSLLQCLKAPVLSDSSCKSSYPGQITGNMICVGFLEGGKDACQGDSGGPVVCNGQLQGIVSSGYGCAQKNKPGVYTKVCNYVNWIQQTIAAN ?
Response line: >80%
